Values were extracted from patent US20150208658A1.

# System: Diabrotica balteata
# assay comment: Diabrotica balteata (Banded Cucumber Beetle): treated corn seeds sown in soil pots, seedlings infested with 3rd stage larvae
# Format: in vivo
# reported conditions: seed treatment, application rate 1 mg/seed, 6 days incubation
Assign % larval mortality to each entry below.
# number only, unit % dropped from output

Query: Any idea what % larval mortality was measured for N#Cc1cc(C2=NOC(c3cc(Cl)cc(Cl)c3)(C(F)(F)F)C2)ccc1-n1cncn1 (stereo not shown) ?
Reply: 100

Query: # repeat for N#Cc1cc(C2=NOC(c3cc(Cl)c(F)c(Cl)c3)(C(F)(F)F)C2)ccc1-n1cncn1 (stereo not shown)
Reply: 83

Query: # repeat for N#Cc1cc(C2=NOC(c3cc(Cl)c(F)c(Cl)c3)(C(F)(F)F)C2)ccc1-n1cc(F)cn1 (stereo not shown) [Compound D2]
Reply: 100

Query: # repeat for N#Cc1cnn(-c2ccc(C3=NOC(c4cc(Cl)c(F)c(Cl)c4)(C(F)(F)F)C3)cc2C#N)c1 (stereo not shown) [Compound D1]
Reply: 100
